Recorded IC50 for the following compounds
Molecular target: beta-glucosidase (Rattus norvegicus)
Test: Inhibition of Beta-glucosidase of rat intestine; no inhibition
attribute-measured: IC50

{"columns": ["compound", "target-desc", "assay-result"],
 "data": [
  ["CCCCCCCCNC1CC(CO)C(O)C(O)C1O (stereo not drawn)", "beta-glucosidase (Rattus norvegicus)", "> 1000 µM"],
  ["CO[C@@H]1CC2COC(C1O)[C@H]2NC1CC(CO)C(O)C(O)C1O (stereo partly drawn)", "beta-glucosidase (Rattus norvegicus)", "> 1000 µM"],
  ["C=C1CC(NCCCCCCCC)C(O)C(O)C1O (stereo not drawn)", "beta-glucosidase (Rattus norvegicus)", "> 1000 µM"]
]}
